target: hemagglutinin H3 on influenza virus A/Aichi/2/68 strain (H3N2) (influenza virus A/Aichi/2/68 (H3N2)); test: cell-based or functional assay
readout: IC50(µM), plaque assay, infection of MDCK cells
Give bare numbers, in µM.

// known answers, use as guide
# substance, unit-info, measured-value
records = [
    ("C18-s2(r1-8) (C18-VMTRPLRA peptide amide)", "µM", 226),
    ("C18-s2(1-6) (C18-ARLPRT peptide amide)", "µM", 5),
    ("C18-s2(8-15) (C18-VHPKPAQP peptide amide)", "µM", 10.5),
]

IN: For C18-s2(1-7) (C18-ARLPRTM peptide amide) , what is its reported IC50(µM), plaque assay, infection of MDCK cells?
OUT: 9.1
